# Test system: A549-TP53BP1-CLTA
# Experiment notes: phenotypically active (imaging signature differs from DMSO and reproducible) at any of 0.3-9 uM (binary (1 = active, 0 = inactive)); higher = active
# Test parameters: treatment time: 24 h
Metric name: phenotypically active
In your answer, state the number alone without any accompanying words.

Use the examples below as a reference point.
Compound	System	Metric name	Reported result
Cc1cn(CCN2CCN(c3ccccc3-c3cc(C#N)cc(C(=O)NCCCN4CCCC4)c3)CC2)c2ccccc12	A549-TP53BP1-CLTA	phenotypically active	1
COC(=O)C1=C(C)NC(C)=C(C(=O)OC(C)C)C1c1cccc2nonc12 (centres undefined)	A549-TP53BP1-CLTA	phenotypically active	0
CC(CN1c2ccccc2Sc2ccccc21)N(C)C (centres undefined)	A549-TP53BP1-CLTA	phenotypically active	0

[in] Given Cc1ccc(C(=O)Oc2ccc(C(O)CNC(C)(C)C)cc2OC(=O)c2ccc(C)cc2)cc1 (centres undefined) , respond with its phenotypically active.
[out] 0

[in] Given "COc1c(C=O)c(O)cc2c1C(=O)c1ccccc1C2=O" , respond with its phenotypically active.
[out] 1

Entry source: the supplement of paper PMC7411054
